Entries with reported IC50 on RnDYRK1A-kd (Rattus norvegicus)
Give the value in nM but do not write nM after it.

NC(=O)c1c(O)cc(O)c2c1oc1ccc(F)cc12 690

Now for a further compound.
Q: State its IC50 on RnDYRK1A-kd (Rattus norvegicus): `COc1cc(OC)c2c(oc3ccc(F)cc32)c1C(N)=O`
Ans: 1330

* * *

Each entry below lists one item and its recorded pIC50 value.
measured target: HsPim-1 (Homo sapiens, UniProt P11309)
Construct: made in house; host or cells: Escherichia coli BL21 DE3 pLysS
Sequence (P11309 whole entry): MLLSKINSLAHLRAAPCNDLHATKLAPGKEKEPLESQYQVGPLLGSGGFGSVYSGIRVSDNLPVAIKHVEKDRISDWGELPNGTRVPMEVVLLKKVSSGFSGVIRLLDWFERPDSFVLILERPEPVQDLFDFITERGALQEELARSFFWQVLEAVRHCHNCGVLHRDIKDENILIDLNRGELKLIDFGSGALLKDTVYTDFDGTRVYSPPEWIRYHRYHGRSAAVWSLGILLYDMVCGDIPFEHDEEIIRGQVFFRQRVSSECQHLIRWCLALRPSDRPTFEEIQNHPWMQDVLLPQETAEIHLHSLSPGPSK
assay comment: Kinase assay, luminescent ADP-Glo, 10 µM ATP
Assay type: biochemical
study conditions: Table 2; ADP-Glo, 10 µM ATP, mean of n ≥ 3; read-out: IC50 Pim-1
Kindly note that pIC50 refers to -log10 of the concentration in mol/L and answer with the value alone.

Reference set (3 entries):
molecule	pIC50
NC(=O)c1c(O)cc(O)c2c1oc1c(N)cccc12	6.89
CC(=O)C1=C(O)C=C2Oc3c(C(N)=O)c(O)cc(O)c3[C@]2(C)C1=O [Cerco, Cercosporamide]	6.14
CC(=O)c1cc2c(cc1O)oc1c(C(N)=O)c(O)cc(O)c12	6.09

Q: State its pIC50 on HsPim-1 (Homo sapiens, UniProt P11309): `NC(=O)c1c(O)cc(O)c2c1oc1ccc(F)cc12`
Ans: 5.92

* * *

measured target: HsCDK9/CyclinT (Homo sapiens, UniProt P50750)
Sequence (P50750 whole entry): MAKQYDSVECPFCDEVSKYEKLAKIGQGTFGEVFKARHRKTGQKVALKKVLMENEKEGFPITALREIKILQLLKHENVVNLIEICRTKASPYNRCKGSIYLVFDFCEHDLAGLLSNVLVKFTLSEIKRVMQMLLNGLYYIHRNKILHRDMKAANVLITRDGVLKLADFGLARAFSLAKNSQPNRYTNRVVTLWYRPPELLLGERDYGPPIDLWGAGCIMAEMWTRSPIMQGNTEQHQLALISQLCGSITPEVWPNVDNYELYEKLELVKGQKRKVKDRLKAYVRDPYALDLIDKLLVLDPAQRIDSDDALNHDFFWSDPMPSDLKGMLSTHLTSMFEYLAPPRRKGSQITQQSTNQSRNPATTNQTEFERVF
Sequence (O60563 whole entry partner): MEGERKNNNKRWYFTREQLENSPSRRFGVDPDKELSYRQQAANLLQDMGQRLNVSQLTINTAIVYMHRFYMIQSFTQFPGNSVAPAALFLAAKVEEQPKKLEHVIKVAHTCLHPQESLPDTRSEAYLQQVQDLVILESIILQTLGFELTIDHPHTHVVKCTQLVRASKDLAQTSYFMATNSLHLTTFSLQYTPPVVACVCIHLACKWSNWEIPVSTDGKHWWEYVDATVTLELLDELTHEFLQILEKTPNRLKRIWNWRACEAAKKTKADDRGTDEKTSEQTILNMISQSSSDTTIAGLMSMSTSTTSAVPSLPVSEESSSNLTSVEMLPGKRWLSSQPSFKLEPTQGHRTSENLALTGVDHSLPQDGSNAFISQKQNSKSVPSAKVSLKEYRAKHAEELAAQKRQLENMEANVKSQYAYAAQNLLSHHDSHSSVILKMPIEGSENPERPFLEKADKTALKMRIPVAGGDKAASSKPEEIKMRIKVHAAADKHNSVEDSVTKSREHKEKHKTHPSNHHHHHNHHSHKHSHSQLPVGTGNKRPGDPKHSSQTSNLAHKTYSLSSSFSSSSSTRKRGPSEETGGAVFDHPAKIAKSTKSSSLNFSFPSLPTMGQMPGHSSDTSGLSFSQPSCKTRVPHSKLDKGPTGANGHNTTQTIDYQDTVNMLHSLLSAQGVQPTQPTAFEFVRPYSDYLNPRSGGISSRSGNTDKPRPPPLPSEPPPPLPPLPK
assay comment: Kinase assay, luminescent ADP-Glo, 10 µM ATP
study conditions: duplicate, read-out: Kinase Enzymatic IC50 CDK9/CyclinT
reported endpoint: IC50

Reference set (2 entries):
compound	measured target	IC50
NC(=O)c1c(O)cc(O)c2c1oc1c(N)cccc12 [Compound 16]	HsCDK9/CyclinT (Homo sapiens, UniProt P50750)	> 10 µM
NC(=O)c1c(O)cc(O)c2c1oc1cc(O)ccc12 [Compound 44]	HsCDK9/CyclinT (Homo sapiens, UniProt P50750)	> 10 µM

Q: Give its IC50 value. Item: CC(=O)c1ccc2oc3c(C(N)=O)c(O)cc(O)c3c2c1 [Compound 45]
Ans: > 10 µM
